Where these numbers come from: ChEMBL document CHEMBL4825686

Collected solubility kinetic values appear next to each entry.
# MEASUREMENT_PROTOCOL: Kinetic solubility of compound
# Type: physicochemical
# TEST_SETTINGS: read-out: Kinetic_solubility
Reply numerically in µM, unit not repeated.

// below: answered compounds
                                chem_smiles  uom  measurement
0  Cc1ccc(Oc2cnc(C(=O)C(=O)Nc3ccc4c(ccn4C)c3)cn2)cc1   µM           10
1  Cc1ccc(CN2CCN(C(=O)C(=O)Nc3ccc4[nH]c(C)c(C)c4c3)CC2)cc1   µM           23
2  Cc1ccc(CN2CCN(C(=O)C(=O)Nc3ccc4c(c3)c(F)cn4C)CC2)cc1   µM         16.5

Proceeding to the next compound to report its solubility kinetic.
response.value for Cc1ccc(CN2CCN(C(=O)C(=O)Nc3cc4ccn(C)c4cc3F)CC2)cc1 (field: solubility kinetic) = 47.1

---

# MEASUREMENT_PROTOCOL: Metabolic stability in human liver microsomes assessed as intrinsic clearance at 1 uM measured per mg protein upto 40 mins
# Format: ADME, Microsome
# TEST_SETTINGS: read-out: CLH
REPORTED_PROPERTY: microsomal CLint at 1 µM (µL/min/mg)
Kindly answer with a numeric value in µL/min/mg, unit omitted.

A selection of reference data follows.
>>> print(df.to_string())
                                   compound         reported_property  measurement
0  Cc1ccc(OC2CC3CCC(C2)N3C(=O)C(=O)Nc2ccc3[nH]ccc3c2)cc1 (stereo not drawn)  microsomal CLint at 1 µM           12
1  Cc1ccc(CN2CCN(C(=O)C(=O)Nc3cc(F)c4[nH]ccc4c3)CC2)cc1  microsomal CLint at 1 µM           17

Switching to the query record.
Measured microsomal CLint at 1 µM of Cc1ccc(CN2CCN(C(=O)C(=O)Nc3ccc4c(ccn4C)c3)CC2)cc1 : 15
